What logP was measured for each of the following?
One number for each entry.

Below, 2 compounds whose answers are already recorded.
O=C(NC(CO)C(O)c1ccc([N+](=O)[O-])cc1)C(Cl)(Cl)Cl (centres undefined)
1.97
Clc1c(Cl)c(Cl)c2ccccc2c1Cl
5.75

# return logP for each item in the list
1. Cc1ccc(C(O)c2ccccc2)cc1 (centres undefined)
2. CC(C)(S)[C@@H](N)C(=O)O
3. O=C(O)c1ccc(Br)cc1
4. Nc1cccc(O)c1

1. 3.13
2. -1.78
3. 2.86
4. 0.21

# return logP for each item in the list
1. FC1(F)C(F)(F)C(F)(F)C(F)(F)C(F)(F)C1(F)F
2. CCCCCC(=O)O
3. CCOCC

1: 2.91; 2: 1.92; 3: 0.89

====

Peptide text beside a SMILES is read from it. * marks the point of attachment. NHtBu = CC(C)(C)N*
What logP was measured for each of the following?
Answers are plain numbers.

Below, 5 compounds whose answers are already recorded.
C1CCNC1
0.46
Oc1cccc2c(O)cccc12
1.94
CC(=O)N[C@@H](Cc1ccccc1)C(=O)NCC(N)=O (Ac-Phe-Gly-NH2)
-0.5
CC(=O)Nc1ccccc1O
0.72
CC(=O)NC(C)C(=O)NC(Cc1ccccc1)C(=O)NC(C)C(=O)NC(C)(C)C (stereo not drawn) (Ac-Ala-Phe-Ala-NHtBu; configuration not given here)
1.01

# return logP for each item in the list
1. O=C(Oc1ccccc1)Oc1ccccc1
2. CC(=O)C(=Cc1ccccc1C)C(C)=O
3. Nc1nncs1

[3.28, 1.98, -0.57]

====

observable: logP
Numbers only.

Below, 2 molecules whose answers are already recorded.
CN(C)C(N(C)C)=S(I)c1ccccc1I (stereo not drawn)
0.3
c1ccc(-c2ccncc2)cc1
2.59

Need logP, item CC(=C(C#N)C#N)c1ccccc1
2.1

====

// returns F unless logP is strictly below 1, in which case T

Study these solved cases before continuing.
Cn1c(=O)cnc2ccccc21
T
CN1CCC=C1c1cccnc1
F

Please state whether logP is below 1 for CCNC(=O)c1cccnc1
T

Please state whether logP is below 1 for CCC(=O)C1(c2cccc(OC(=O)c3ccccc3)c2)CCN(C)CC1
F

Please state whether logP is below 1 for COc1ccc(C=C(C(C)=O)C(C)=O)c(OC)c1
F

Please state whether logP is below 1 for CNC(=O)Oc1ccc(Cl)c(Cl)c1
F

Please state whether logP is below 1 for O=C(c1ccccc1)c1ccccc1O
F

Please state whether logP is below 1 for O=C1CN=C(c2ccccc2C(F)(F)F)c2ccccc2N1
F

====

Label no (0) if logP falls below 2; label yes (1) in every other case.

Nc1ccc2cc3ccccc3nc2c1
yes (1)
COC(=O)C12OCC34C(CC5C(C)=C(O)C(=O)CC5(C)C3C(O)C1O)OC(=O)C(OC(=O)C=C(C)C(C)C)C24 (stereo unspecified)
no (0)
CN(C)c1nc2c3cccnc3ccc2n1C
yes (1)
Cc1ccc(O)c(C)c1
yes (1)
NC(=O)CCCCc1ccncc1
no (0)

Reported logP reaches at least 2 for C=CC(=O)c1ccccc1 ?
no (0)

====

Peptide text beside a SMILES is read from it.
observable: logP
Numbers only.

Below, 3 molecules whose answers are already recorded.
CC(=O)N[C@@H](CCC(N)=O)C(=O)N[C@@H](Cc1ccccc1)C(N)=O (Ac-Gln-Phe-NH2)
-1.14
FC(F)(F)C(F)(F)F
2
O=Cc1cccc(Oc2ccccc2)c1
3.38

# return logP for each item in the list
1. O=C(CCCN1CCN(c2ccccn2)CC1)c1ccc(F)cc1
2. CC(=O)N[C@@H](C)C(=O)N[C@@H](CC(C)C)C(=O)N[C@H](C(N)=O)C(C)C (Ac-Ala-Leu-Val-NH2)
3. C=C

3.3
-0.14
1.13

====

observable: logP
Answers are plain numbers.

# return logP for each item in the list
1. c1ccc2oncc2c1
2. NC(=S)N1CCCCC1
3. NC(=O)c1ccc([N+](=O)[O-])cc1
4. Cc1ccc(NS(=O)(=O)c2ccc(N)cc2)cc1
5. CCOC(=O)C(Cl)(Cl)Cl
6. CC(=O)c1ccco1

1.63
0.73
0.82
2.11
2.39
0.52

# return logP for each item in the list
1. COP(=S)(NC(C)C)Oc1ccc(Cl)cc1Cl (configuration not stated)
2. CCCCC(C)(C)c1ccc(C2CCCC(O)C2)c(O)c1 (configuration not stated)
3. O=C(Nc1ccccc1)NC1CCCCC1
4. COC(=O)NS(=O)(=O)c1ccc(N)cc1

4.3
5.43
2.77
-0.27

# return logP for each item in the list
1. Cc1cc(N)nc(C)n1
2. NC(=O)c1[nH]cnc1N
3. O=C(CN1CCCCC1)Nc1ccc(I)cc1
4. CC(=O)Oc1cccc(F)c1
5. CC(=O)Oc1cccc(C)c1

1: 0.39; 2: -1.1; 3: 3.9; 4: 1.74; 5: 2.09

# return logP for each item in the list
1. O=NN1CCOCC1
2. COc1ccc(C(=O)OCCN(C)C)cc1
3. CC1CC2C3CCC4=CC(=O)C=CC4(C)C3(F)C(=O)CC2(C)C1(O)C(=O)CCl (configuration not stated)
4. CCCCN(CCCC)CC(O)c1ccccc1 (configuration not stated)
5. COc1ccc([N+](=O)[O-])cn1

1: -0.44; 2: 2.21; 3: 2.61; 4: 3.16; 5: 1.55

# return logP for each item in the list
1. CSCC(=O)C=NO
2. COC(=O)c1ccc(S(I)=C(N(C)C)N(C)C)cc1 (configuration not stated)
3. CCOC(=O)C(=O)c1cccs1
4. CCC(=O)OC1(C(=O)CCl)C(C)CC2C3CCC4=CC(=O)C=CC4(C)C3C(O)CC21C (configuration not stated)
5. OC(c1ccc(Cl)cc1)(c1ccc(Cl)cc1)C1CC1
6. Oc1ccc(-c2ccccc2)cc1
7. CNC(=O)Oc1ccccc1C(C)C

1. 1.21
2. -0.74
3. 1.77
4. 3.34
5. 5.5
6. 3.2
7. 2.31

====

Label false (0) if logP falls below 2; label true (1) in every other case.

Oc1cnc2ccccc2n1
false (0)

Reported logP reaches at least 2 for CNC(=O)Oc1ccccc1Cl ?
false (0)

Reported logP reaches at least 2 for CCC1=Nc2ccc(Cl)cc2S(=O)(=O)N1 ?
false (0)

Reported logP reaches at least 2 for CCCCCCC(=O)NN ?
false (0)

Reported logP reaches at least 2 for O=[N+]([O-])c1cccc(Cl)c1Cl ?
true (1)

Reported logP reaches at least 2 for CSc1cccc(OCC(=O)O)c1 ?
false (0)

====

What logP was measured for each of the following?
Numbers only.

Below, 5 molecules whose answers are already recorded.
OCCOc1c(Br)cc(Br)cc1Br
3.42
O=C[C@H](O)[C@@H](O)[C@H](O)[C@H](O)C(=O)O
-2.57
Fc1c(F)c(F)c(F)c(F)c1F
2.55
O=C(Nc1ccccc1)Oc1ccccc1
3.3
CNC(=S)NCCCCc1cnc[nH]1
0.39

# return logP for each item in the list
1. Clc1ccc(Cl)c(-c2ccc(Cl)c(Cl)c2)c1
2. FC(Cl)(Cl)Cl
3. CNC(=O)c1cccnc1
4. CCCCCCCCNC(=O)c1[nH]nc(C)c1[N+](=O)[O-]
5. Cc1cc2ccccc2[nH]1
6. CN(C)C(=O)OCc1ccc(I)cc1

6.23
2.53
0
3.48
2.53
3.32

====

observable: logP
Answers are plain numbers.

Below, 4 compounds whose answers are already recorded.
CN(C)C(N(C)C)=S(I)c1cc(Cl)ccc1Cl (stereo unspecified)
0.05
O=C1CC(Sc2ccccc2)N1 (stereo unspecified)
1.58
c1cncnc1
-0.4
CCCCc1c(C)nc(NCC)nc1OS(=O)(=O)N(C)C
2.7

# return logP for each item in the list
1. CCn1cnc([N+](=O)[O-])n1
2. CCCCCBr
3. CC1(C)Cc2cccc(O)c2O1
4. O=[N+]([O-])c1ccc2[nH]ccc2c1
5. CCCOC/C(=N\c1ccc(Cl)cc1C(F)(F)F)n1ccnc1
6. OCC(O)COc1ccccc1 (stereo unspecified)
7. NCCCCNC(=O)c1ccccc1

1: -0.19; 2: 3.37; 3: 2.08; 4: 2.53; 5: 1.4; 6: 0.7; 7: 0.58

====

// returns label 0 unless logP is strictly below 1, in which case label 1

CC(=O)Nc1ncc([N+](=O)[O-])s1
label 0
CNC(=O)Oc1cccc(N(C)C)c1
label 0

Please state whether logP is below 1 for CCC1COC(Cn2cncn2)(c2ccc(Cl)cc2Cl)O1 (stereo not given)
label 0

Please state whether logP is below 1 for FC(F)(F)c1nc2c(Cl)c(Cl)ccc2[nH]1
label 0

Please state whether logP is below 1 for O=C(CO)NCc1ccccc1
label 1

====

// returns No unless logP is strictly below 2, in which case Yes

O=[N+]([O-])c1ccccc1C(F)(F)F
No
Cc1ccc2[nH]ccc2c1
No
CCCCOc1ccc(CC(=O)NO)cc1
No

Please examine the following record next.
Please state whether logP is below 2 for Fc1ccccc1F
No

Source: the OPERA property sets (Mansouri et al. 2018)
